B1: library; a variant is named by its letters at N, in order (parent)
chain: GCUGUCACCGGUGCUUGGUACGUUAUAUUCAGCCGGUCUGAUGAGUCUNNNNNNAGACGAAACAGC

variants of: B1; experiment: normalized RNA/DNA level without ligand (relative to sTRSVctl = 100) (log10 (% of sTRSVctl)); HEK293T overexpressing SLC46A1; higher = less ribozyme self-cleavage, higher mRNA level; settings: without (6R,S)-folinic acid; ligand present: no
quantity-name: normalized RNA/DNA level without ligand (log10)

Solved cases (3 shown):
>  <variant-descriptor>
CAAAUU

>  <assay-value>
2.01

$$$$
>  <variant-descriptor>
GCAUAG

>  <assay-value>
1.97

$$$$
>  <variant-descriptor>
ACAAAU

>  <assay-value>
1.95

$$$$

Dear reader, for each entry below, please note its normalized RNA/DNA level without ligand (log10).
1. GGUCCG
2. ACCAAG
3. CAAUUU
4. CUCGAU
5. UAAACU
6. GUGUCA
7. UACAUA
8. UGACUU

[2.04, 2.01, 2, 1.99, 2.01, 2.01, 1.96, 2.01]

Dear reader, for each entry below, please note its normalized RNA/DNA level without ligand (log10).
1. AAGUCA
2. CGCAUG
3. AGAUGU
4. AAUCGA
5. GAAUUC

[1.97, 2.01, 1.97, 1.97, 2.01]

Dear reader, for each entry below, please note its normalized RNA/DNA level without ligand (log10).
1. AGGUAA
2. GAGCGC
3. CAAACA
4. CACAGC
5. CUCAGU
6. UCCAGU
7. GAAAGG

1. 1.95
2. 2
3. 1.98
4. 1.98
5. 2.02
6. 1.94
7. 1.9

Dear reader, for each entry below, please note its normalized RNA/DNA level without ligand (log10).
1. UUUUGU
2. UACCCU
3. UAACAU
4. AGACUG
5. AAACGA
6. UCAAGC

1.96
2.03
1.96
2
2
2.07
